System: pigweed
Experiment: Test B pre-/postemergence herbicide test
Format: in vivo, Amaranthus retroflexus
Details: 500 g ai/ha; visual rating 0-100, 0 no effect, 100 complete control; preemergence
Plant response rating, Pigweed values, listed per item

{"test smiles": "CC(=NO)c1cccc(NC(=O)c2cc(C(C)(C)C)nn2C)c1", "study system": "pigweed", "Plant response rating, Pigweed": 100}
{"test smiles": "Cc1nc(C(C)(C)C)sc1C(=O)Nc1cccc(C(=O)NCC(F)(F)F)c1", "study system": "pigweed", "Plant response rating, Pigweed": 20}
{"test smiles": "CCc1nn(C(C)(C)C)cc1C(=O)Nc1cc(C(=O)NC)ccc1F", "study system": "pigweed", "Plant response rating, Pigweed": 100}
{"test smiles": "CCn1nc(C(C)(C)C)cc1C(=O)Nc1cccc(C(=O)OC(C)C)c1C", "study system": "pigweed", "Plant response rating, Pigweed": 0}

----------
System: Surinam grass
Assay: Test B pre-/postemergence herbicide test
Assay type: in vivo, Urochloa decumbens
Conditions: preemergence, 125 g ai/ha; 0 to 100 scale, 0 is no effect, 100 is complete control

{"molecule": "CCNC(=O)c1cc(C)nc(NC(=O)c2cc(C(C)(C)C)nn2CC)c1 [Compound 149]", "study system": "Surinam grass", "Plant response rating, Surinam Grass": 40}
{"molecule": "CCC(=NO)c1cccc(NC(=O)c2cc(C(C)(C)C)nn2C)c1 [Compound 118]", "study system": "Surinam grass", "Plant response rating, Surinam Grass": 10}
{"molecule": "CCN(CC)C(=O)c1cc(NC(=O)c2cc(C(C)(C)C)nn2CC)ccc1C [Compound 69]", "study system": "Surinam grass", "Plant response rating, Surinam Grass": 0}
{"molecule": "CCn1nc(C(C)(C)C)cc1C(=O)Nc1ccc(F)c(C(=O)NCCF)c1 [Compound 60]", "study system": "Surinam grass", "Plant response rating, Surinam Grass": 10}
{"molecule": "CCn1nc(C(C)(C)C)cc1C(=O)Nc1cc(C(=O)OC)c(OC)cc1F [Compound 75]", "study system": "Surinam grass", "Plant response rating, Surinam Grass": 30}
{"molecule": "CC(=NO)c1cccc(NC(=O)c2cc(C(C)(C)C)nn2CC(F)(F)F)c1 [Compound 112]", "study system": "Surinam grass", "Plant response rating, Surinam Grass": 20}
{"molecule": "C#CCN(C)C(=O)c1ccnc(NC(=O)c2cc(C(C)(C)C)nn2CC)c1 [Compound 160]", "study system": "Surinam grass", "Plant response rating, Surinam Grass": 20}
{"molecule": "C=CCN(C)C(=O)c1ccnc(NC(=O)c2cc(C(C)(C)C)nn2CC)c1 [Compound 159]", "study system": "Surinam grass", "Plant response rating, Surinam Grass": 60}
{"molecule": "CC(=O)c1cc(NC(=O)c2cc(C(C)(C)C)nn2C)ccc1F [Compound 123]", "study system": "Surinam grass", "Plant response rating, Surinam Grass": 0}
{"molecule": "CCn1nc(C(C)(C)C)cc1C(=O)Nc1ccc(C)c(C(=O)OC(C)C)c1 [Compound 100]", "study system": "Surinam grass", "Plant response rating, Surinam Grass": 0}

----------
Tested on: blackgrass
Assay: Test B postemergence herbicide test
Type: in vivo, Alopecurus myosuroides
Details: Postemergence, 500 g ai/ha; scale 0 (no effect) to 100 (complete control)
Blackgrass plant response rating values, listed per item

{"test smiles": "CCNC(=O)c1cccc(NC(=O)c2nn(C(C)C)nc2C)c1", "study system": "blackgrass", "Blackgrass plant response rating": 10}
{"test smiles": "CCOC(=O)c1ccnc(NC(=O)c2nn(C(C)(C)C)nc2C)c1", "study system": "blackgrass", "Blackgrass plant response rating": 20}
{"test smiles": "CCc1nn(C(C)(C)C)nc1C(=O)Nc1cccc(C(=O)NC2CC2)c1", "study system": "blackgrass", "Blackgrass plant response rating": 40}

----------
Cocklebur plant response rating values, listed per item
Test system: cocklebur
Test: Test B pre-/postemergence herbicide test
Format: in vivo, Xanthium strumarium
Conditions: postemergence, 125 g ai/ha; visual rating, scale 0 (no effect) to 100 (complete control)
Protocol: […] At the same time, plants selected from these crop and weed species and also blackgrass (Alopecurus myosuroides Huds.), wheat (Triticum aestivum L.) and wild oat (Avena fatua L.) were treated with postemergence applications of test chemicals formulated in the same manner. […] Treated plants and controls were maintained in a greenhouse for 13 to 15 days, after which time all species were compared to controls and visually evaluated. […]

{"test smiles": "CC(=O)c1cc(NC(=O)c2cc(C(C)(C)C)nn2C)ccc1F", "Cocklebur plant response rating": 0}
{"test smiles": "CCn1nc(C(C)(C)C)cc1C(=O)Nc1ccc(C)c(C(=O)OC(C)C)c1", "Cocklebur plant response rating": 0}
{"test smiles": "CCn1nc(C(C)(C)C)cc1C(=O)Nc1nc(OC)cc(SCF)n1", "Cocklebur plant response rating": 0}
{"test smiles": "CCn1nc(C(C)(C)C)cc1C(=O)Nc1cccc(C#N)c1", "Cocklebur plant response rating": 20}
{"test smiles": "CCN(C)C(=O)c1cccc(NC(=O)c2sc(C(C)(C)C)nc2C)c1", "Cocklebur plant response rating": 20}
{"test smiles": "CCn1nc(C(C)(C)C)cc1C(=O)Nc1ccnc(C(=O)NCCF)c1", "Cocklebur plant response rating": 0}
{"test smiles": "CCn1nc(C(C)(C)C)cc1C(=O)Nc1cc(C(=O)OC(C)C)c(OC)cc1F", "Cocklebur plant response rating": 0}
{"test smiles": "CCn1nc(C(C)(C)C)cc1C(=O)Nc1nccc(OC)n1", "Cocklebur plant response rating": 0}
{"test smiles": "CCn1nc(C(C)(C)C)cc1C(=O)Nc1cccc(OC(F)(F)F)c1", "Cocklebur plant response rating": 40}
{"test smiles": "CCn1nc(C(C)(C)C)cc1C(=O)Nc1ccc(F)c(C(=O)NCCF)c1", "Cocklebur plant response rating": 40}
{"test smiles": "CCc1nn(C(C)(C)C)cc1C(=O)Nc1cccc(C(C)=NO)c1", "Cocklebur plant response rating": 20}
{"test smiles": "CCn1nc(C(C)(C)C)cc1C(=O)Nc1cccc(C(=O)N(C)CC#N)n1", "Cocklebur plant response rating": 20}
{"test smiles": "C#CCNC(=O)c1cccc(NC(=O)c2sc(C(C)(C)C)nc2C)c1", "Cocklebur plant response rating": 0}
{"test smiles": "CCn1nc(C(C)(C)C)cc1C(=O)Nc1cccc(C(=O)NOC)c1", "Cocklebur plant response rating": 0}
{"test smiles": "CCc1nn(C(C)(C)C)cc1C(=O)Nc1ccc(F)c(C(=O)N(C)C)c1", "Cocklebur plant response rating": 0}
{"test smiles": "CCc1nc(C(C)(C)C)sc1C(=O)Nc1cc(C(=O)N(C)CC)ccc1F", "Cocklebur plant response rating": 10}
{"test smiles": "CCc1nc(C(C)(C)C)sc1C(=O)Nc1cccc(C(=O)NCC2CC2)n1", "Cocklebur plant response rating": 20}
{"test smiles": "CCc1cn(C(C)(C)C)nc1C(=O)Nc1cc(C(=O)N(C)CC)ccn1", "Cocklebur plant response rating": 0}
{"test smiles": "CC(=NO)c1cccc(NC(=O)c2cc(C(C)(C)C)nn2CC(F)(F)F)c1", "Cocklebur plant response rating": 60}

----------
Tested on: lambsquarters
Experiment: Test B pre-/postemergence herbicide test
Format: in vivo, Chenopodium album
Settings: 500 g ai/ha; visual rating, 0 = no effect, 100 = complete control; preemergence
Plant response rating, Lambsquarters values, listed per item

{"compound": "CCc1cn(C(C)(C)C)nc1C(=O)Nc1cc(C(=O)N(C)CC)ccn1 [Compound 235]", "Plant response rating, Lambsquarters": 90}
{"compound": "COC(=O)c1cccc(NC(=O)c2cc(C(C)(C)C)nn2C)n1 [Compound 312]", "Plant response rating, Lambsquarters": 0}
{"compound": "CCNC(=O)c1cccc(NC(=O)c2cc(C(C)(C)C)n[nH]2)c1 [Compound 351]", "Plant response rating, Lambsquarters": 0}
{"compound": "CCN(C)C(=O)c1cccc(NC(=O)c2sc(C(C)(C)C)nc2C)c1 [Compound 227]", "Plant response rating, Lambsquarters": 90}

----------
Test system: morningglory
Experiment: Test B pre-/postemergence herbicide test
Format: in vivo, Ipomoea coccinea
Conditions: preemergence, 125 g ai/ha; 0 to 100 scale, 0 is no effect, 100 is complete control
parameter: Plant response rating, Morningglory

{"test smiles": "CC(=NO)c1cccc(NC(=O)c2cc(C(C)(C)C)nn2C)c1", "parameter": "Plant response rating, Morningglory", "result": 50}
{"test smiles": "CCn1nc(C(C)(C)C)cc1C(=O)Nc1cccc(C(=O)NC2CC2)n1", "parameter": "Plant response rating, Morningglory", "result": 0}
{"test smiles": "CCN(CC)C(=O)c1cccc(NC(=O)c2cc(C(C)(C)C)nn2CC(F)(F)F)c1", "parameter": "Plant response rating, Morningglory", "result": 50}
{"test smiles": "CCn1nc(C(C)(C)C)cc1C(=O)Nc1cccc(C(=O)OC(C)C)c1C", "parameter": "Plant response rating, Morningglory", "result": 0}

Ref: patent US20060069132A1
